Each item that follows carries a reported koff.
Target: T1, human B7-H4 (purified monomeric recombinant human protein, ACRO biosystems) (human, UniProt Q7Z7D3 29-258, limits assumed, chemically biotinylated (EZ-Link NHS-LC-Biotin) in the yeast display and competition experiments; non-biotinylated in SPR)
T1 construct: Bought recombinant monomeric protein; also called B7x; B7S1
T1 sequence: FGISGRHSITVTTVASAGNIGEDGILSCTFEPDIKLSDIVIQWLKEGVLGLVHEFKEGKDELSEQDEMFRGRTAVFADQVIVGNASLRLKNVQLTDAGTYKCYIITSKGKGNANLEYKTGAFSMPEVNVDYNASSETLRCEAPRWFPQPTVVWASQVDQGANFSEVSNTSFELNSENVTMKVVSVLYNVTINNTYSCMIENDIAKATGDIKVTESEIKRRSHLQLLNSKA
Test: SPR (Carterra LSA); scFv-Fc captured on anti-human IgG Fc, antigen injected
Answer format: value, then unit.

A01 scFv-Fc (scFv, V domains shown, Tested as scFv-Fc fusion (human IgG1 Fc, vector pDNL9) in crude yeast supernatant; Combo 1 library) VH: EVQLVESGGGVVQPGRSLRLSCAASGFTFSNKAMNWVRQAPGKGLEWVSAISGSGATTYYADSVKGRFTISRDNSKNTLYLQMNSLRAEDTAVYYCARKRWYGMDVWGQGTTVTVSS VL: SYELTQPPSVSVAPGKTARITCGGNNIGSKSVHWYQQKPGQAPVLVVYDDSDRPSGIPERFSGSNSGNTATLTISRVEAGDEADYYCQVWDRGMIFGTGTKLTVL ... 3.7e-05 s⁻¹
A02 scFv-Fc (scFv, V domains shown, Tested as scFv-Fc fusion (human IgG1 Fc, vector pDNL9) in crude yeast supernatant; Combo 1 library) VH: EVQLVESGGGVVQPGRSLRLSCAASGFTFTSRAMNWVRQAPGKGLEWVSAISYEGRTQYYADSVKGRFTISRDNSKNTLYLQMNSLRAEDTAVYYCARKRWYGMDVWGQGTTVTVSS VL: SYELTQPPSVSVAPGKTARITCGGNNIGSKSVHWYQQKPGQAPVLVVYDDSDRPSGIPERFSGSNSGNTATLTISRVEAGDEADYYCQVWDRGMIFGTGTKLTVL ... 1.1e-05 s⁻¹
A11 scFv-Fc (scFv, V domains shown, Tested as scFv-Fc fusion (human IgG1 Fc, vector pDNL9) in crude yeast supernatant; Combo 2 library) VH: EVQLVESGGGVVQPGRSLRLSCAASGFTFSSRSMNWVRQAPGKGLEWVSAISGSGSTVYYADSVKGRFTISRDNSKNTLYLQMNSLRAEDTAVYYCARKRWYGMDVWGQGTTVTVSS VL: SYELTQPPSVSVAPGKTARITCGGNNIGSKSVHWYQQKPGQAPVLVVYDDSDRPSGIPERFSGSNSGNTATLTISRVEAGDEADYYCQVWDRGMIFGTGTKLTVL ... 1.1e-05 s⁻¹
Parental (H6.1) scFv-Fc (scFv, V domains shown, Expressed with the 24 clones as scFv-Fc fusion (human IgG1 Fc) in yeast for SPR; also called parental antibody; parental molecule) VH: EVQLVESGGGVVQPGRSLRLSCAASGFTFSSYSMNWVRQAPGKGLEWVSAISGSGGSTYYADSVKGRFTISRDNSKNTLYLQMNSLRAEDTAVYYCARKRWYGMDVWGQGTTVTVSS VL: SYELTQPPSVSVAPGKTARITCGGNNIGSKSVHWYQQKPGQAPVLVVYDDSDRPSGIPERFSGSNSGNTATLTISRVEAGDEADYYCQVWDSRTYVFGTGTKLTVL ... 0.0033 s⁻¹

Next, consider the following binder.
Summary for this binder, B02 scFv-Fc (scFv, V domains shown, Tested as scFv-Fc fusion (human IgG1 Fc, vector pDNL9) in crude yeast supernatant; Combo 1 library) VH: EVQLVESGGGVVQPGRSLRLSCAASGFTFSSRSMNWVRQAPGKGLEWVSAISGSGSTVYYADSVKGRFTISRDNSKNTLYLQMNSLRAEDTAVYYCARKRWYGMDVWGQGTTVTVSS VL: SYELTQPPSVSVAPGKTARITCGGNNIGVKSVHWYQQKPGQAPVLVVYDDSDRSPGIPERFSGSNSGNTATLTISRVEAGDEADYYCQVWDSRTYVFGTGTKLTVL : koff is 1.1e-05 s⁻¹
